system: T1, human glucose-dependent insulinotropic peptide receptor (human, UniProt P48546 22-466)
T1 sequence (looked up): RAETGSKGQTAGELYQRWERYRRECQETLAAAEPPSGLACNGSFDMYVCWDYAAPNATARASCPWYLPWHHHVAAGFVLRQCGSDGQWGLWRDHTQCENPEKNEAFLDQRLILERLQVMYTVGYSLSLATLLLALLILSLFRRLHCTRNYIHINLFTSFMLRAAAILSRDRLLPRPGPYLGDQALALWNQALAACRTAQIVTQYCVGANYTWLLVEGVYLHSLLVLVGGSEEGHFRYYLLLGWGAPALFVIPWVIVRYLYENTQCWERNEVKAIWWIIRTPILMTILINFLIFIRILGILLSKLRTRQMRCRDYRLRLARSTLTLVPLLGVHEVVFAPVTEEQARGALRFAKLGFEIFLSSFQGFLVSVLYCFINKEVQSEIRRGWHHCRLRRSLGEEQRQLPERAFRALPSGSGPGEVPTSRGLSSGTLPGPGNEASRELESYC
assaySummary: cell-based or functional assay
property: hGIPR cAMP Rel EC50
Write the figure, then the unit, nothing else.

// known answers, use as guide
# binder, hGIPR cAMP Rel EC50
rows = [
    ("YXEGTFISDYSILLDKKAQXDFVNXLLAQGPSSGAPPPS (D-Ala2; K17((2-[2-(2-Amino-ethoxy)-ethoxy]-acetyl)2-(γ-Glu)-CO-(CH2)16-CO2H); Aib20; 4-Pal25; C-terminal amide) [Example 18]", "6.56 pM"),
    ("YXEGTFISDYSILLDKKHQXDFVNWLLAQGPSSGAPPPS (D-Ala2; K17((2-[2-(2-Amino-ethoxy)-ethoxy]-acetyl)2-(γ-Glu)-CO-(CH2)18-CO2H); Aib20; C-terminal amide) [Example 9]", "165 pM"),
]

Ask | Reported hGIPR cAMP Rel EC50 for YXEGTXISDYSIXLDXKHQXDFVEXLLEGGPSSGAPPPS (Aib2; Iva6; αMeL13; Orn16; K17((2-[2-(2-Amino-ethoxy)-ethoxy]-acetyl)2-(γ-Glu)-CO-(CH2)18-CO2H); Aib20; 4-Pal25; C-terminal amide) [Example 76] : what is it?
Reply | 15.4 pM

These entries and their values trace back to patent US20210032299A1.
